# assay remarks: Pharmacokinetics of CBP501, single agent study
# Format: in vivo, human
# assay conditions: human, in vivo, 16.93 mg/m2, single agent, 16.93 mg/m^2, Day 1, mean, N 2
Structures can show the parent of a compound that is named as a salt. Square brackets hold non-standard residues; d marks the D form. Peptide text beside a SMILES is read from it. dPhe(F5) = N[C@H](Cc1c(F)c(F)c(F)c(F)c1F)C(=O)O; dBpa = N[C@H](Cc1ccc(C(=O)c2ccccc2)cc1)C(=O)O; dCha = N[C@H](CC1CCCCC1)C(=O)O
observation type: AUC(0-inf) (ng·h/mL)
Answers are plain numbers, in ng·h/mL.

Input: // lookup AUC(0-inf) for N=C(N)NCCC[C@@H](NC(=O)[C@@H](CCCNC(=N)N)NC(=O)[C@@H](CCC(N)=O)NC(=O)[C@@H](CCCNC(=N)N)NC(=O)[C@@H](CCCNC(=N)N)NC(=O)[C@@H](CCCNC(=N)N)NC(=O)[C@@H](CC1CCCCC1)NC(=O)[C@@H](Cc1c(F)c(F)c(F)c(F)c1F)NC(=O)[C@@H](CO)NC(=O)[C@@H](Cc1c[nH]c2ccccc12)NC(=O)[C@@H](CO)NC(=O)[C@H](N)Cc1ccc(C(=O)c2ccccc2)cc1)C(=O)O [CBP501, acetate salt] (H-[dBpa][dS][dW][dS][dPhe(F5)][dCha][dR][dR][dR][dQ][dR][dR]-OH)
Output: 14300

----------
# assay remarks: Pharmacokinetics of CBP501, combination study
# Type: in vivo, human
# assay conditions: human, in vivo, combination with cisplatin, CBP501 24.3 mg/m^2, Day 1, mean, N 2
Counter-ions that a name gives are not always drawn. Square brackets hold non-standard residues; d marks the D form. Peptide text beside a SMILES is read from it. dPhe(F5) = N[C@H](Cc1c(F)c(F)c(F)c(F)c1F)C(=O)O; dBpa = N[C@H](Cc1ccc(C(=O)c2ccccc2)cc1)C(=O)O; dCha = N[C@H](CC1CCCCC1)C(=O)O
observation type: AUC(0-inf) (ng·h/mL)
Give bare numbers, in ng·h/mL.

Input: // lookup AUC(0-inf) for N=C(N)NCCC[C@@H](NC(=O)[C@@H](CCCNC(=N)N)NC(=O)[C@@H](CCC(N)=O)NC(=O)[C@@H](CCCNC(=N)N)NC(=O)[C@@H](CCCNC(=N)N)NC(=O)[C@@H](CCCNC(=N)N)NC(=O)[C@@H](CC1CCCCC1)NC(=O)[C@@H](Cc1c(F)c(F)c(F)c(F)c1F)NC(=O)[C@@H](CO)NC(=O)[C@@H](Cc1c[nH]c2ccccc12)NC(=O)[C@@H](CO)NC(=O)[C@H](N)Cc1ccc(C(=O)c2ccccc2)cc1)C(=O)O [CBP501, acetate salt] (H-[dBpa][dS][dW][dS][dPhe(F5)][dCha][dR][dR][dR][dQ][dR][dR]-OH)
Output: 20200

----------
# assay remarks: Pharmacokinetics of CBP501, combination study
# Format: in vivo, human
# assay conditions: human, in vivo, combination with cisplatin, CBP501 10.8 mg/m^2, Day 1, mean, N 5
Structures can show the parent of a compound that is named as a salt. Square brackets hold non-standard residues; d marks the D form. Peptide text beside a SMILES is read from it. dPhe(F5) = N[C@H](Cc1c(F)c(F)c(F)c(F)c1F)C(=O)O; dBpa = N[C@H](Cc1ccc(C(=O)c2ccccc2)cc1)C(=O)O; dCha = N[C@H](CC1CCCCC1)C(=O)O
observation type: clearance (mL/min/kg)
Give bare numbers, in mL/min/kg.

Input: // lookup clearance for N=C(N)NCCC[C@@H](NC(=O)[C@@H](CCCNC(=N)N)NC(=O)[C@@H](CCC(N)=O)NC(=O)[C@@H](CCCNC(=N)N)NC(=O)[C@@H](CCCNC(=N)N)NC(=O)[C@@H](CCCNC(=N)N)NC(=O)[C@@H](CC1CCCCC1)NC(=O)[C@@H](Cc1c(F)c(F)c(F)c(F)c1F)NC(=O)[C@@H](CO)NC(=O)[C@@H](Cc1c[nH]c2ccccc12)NC(=O)[C@@H](CO)NC(=O)[C@H](N)Cc1ccc(C(=O)c2ccccc2)cc1)C(=O)O [CBP501, acetate salt] (H-[dBpa][dS][dW][dS][dPhe(F5)][dCha][dR][dR][dR][dQ][dR][dR]-OH)
Output: 0.883

----------
# assay remarks: Pharmacokinetics of CBP501, single agent study
# Assay type: in vivo, human
# assay conditions: human, in vivo, 16.93 mg/m2, single agent, 16.93 mg/m^2, Day 1, mean, N 2
Structures can show the parent of a compound that is named as a salt. Square brackets hold non-standard residues; d marks the D form. Peptide text beside a SMILES is read from it. dPhe(F5) = N[C@H](Cc1c(F)c(F)c(F)c(F)c1F)C(=O)O; dBpa = N[C@H](Cc1ccc(C(=O)c2ccccc2)cc1)C(=O)O; dCha = N[C@H](CC1CCCCC1)C(=O)O
observation type: Cmax (ng/mL)
Numbers only, in ng/mL.

Input: // lookup Cmax for N=C(N)NCCC[C@@H](NC(=O)[C@@H](CCCNC(=N)N)NC(=O)[C@@H](CCC(N)=O)NC(=O)[C@@H](CCCNC(=N)N)NC(=O)[C@@H](CCCNC(=N)N)NC(=O)[C@@H](CCCNC(=N)N)NC(=O)[C@@H](CC1CCCCC1)NC(=O)[C@@H](Cc1c(F)c(F)c(F)c(F)c1F)NC(=O)[C@@H](CO)NC(=O)[C@@H](Cc1c[nH]c2ccccc12)NC(=O)[C@@H](CO)NC(=O)[C@H](N)Cc1ccc(C(=O)c2ccccc2)cc1)C(=O)O [CBP501, acetate salt] (H-[dBpa][dS][dW][dS][dPhe(F5)][dCha][dR][dR][dR][dQ][dR][dR]-OH)
Output: 4920

----------
# assay remarks: Pharmacokinetics of CBP501, single agent study
# Assay type: in vivo, human
# assay conditions: human, in vivo, 9.57 mg/m2, single agent, 9.57 mg/m^2, Day 15, mean, N 2
Structures can show the parent of a compound that is named as a salt. Square brackets hold non-standard residues; d marks the D form. Peptide text beside a SMILES is read from it. dPhe(F5) = N[C@H](Cc1c(F)c(F)c(F)c(F)c1F)C(=O)O; dBpa = N[C@H](Cc1ccc(C(=O)c2ccccc2)cc1)C(=O)O; dCha = N[C@H](CC1CCCCC1)C(=O)O
observation type: clearance (mL/min/kg)
Numbers only, in mL/min/kg.

Input: // lookup clearance for N=C(N)NCCC[C@@H](NC(=O)[C@@H](CCCNC(=N)N)NC(=O)[C@@H](CCC(N)=O)NC(=O)[C@@H](CCCNC(=N)N)NC(=O)[C@@H](CCCNC(=N)N)NC(=O)[C@@H](CCCNC(=N)N)NC(=O)[C@@H](CC1CCCCC1)NC(=O)[C@@H](Cc1c(F)c(F)c(F)c(F)c1F)NC(=O)[C@@H](CO)NC(=O)[C@@H](Cc1c[nH]c2ccccc12)NC(=O)[C@@H](CO)NC(=O)[C@H](N)Cc1ccc(C(=O)c2ccccc2)cc1)C(=O)O [CBP501, acetate salt] (H-[dBpa][dS][dW][dS][dPhe(F5)][dCha][dR][dR][dR][dQ][dR][dR]-OH)
Output: 0.783

----------
# assay remarks: Pharmacokinetics of CBP501, single agent study
# Assay type: in vivo, human
# assay conditions: human, in vivo, 16.93 mg/m2, single agent, 16.93 mg/m^2, Day 15, mean, N 3
Where a name gives a salt, the structure may show the parent alone. Square brackets hold non-standard residues; d marks the D form. Peptide text beside a SMILES is read from it. dPhe(F5) = N[C@H](Cc1c(F)c(F)c(F)c(F)c1F)C(=O)O; dBpa = N[C@H](Cc1ccc(C(=O)c2ccccc2)cc1)C(=O)O; dCha = N[C@H](CC1CCCCC1)C(=O)O
observation type: AUC(0-inf) (ng·h/mL)
Numbers only, in ng·h/mL.

Input: // lookup AUC(0-inf) for N=C(N)NCCC[C@@H](NC(=O)[C@@H](CCCNC(=N)N)NC(=O)[C@@H](CCC(N)=O)NC(=O)[C@@H](CCCNC(=N)N)NC(=O)[C@@H](CCCNC(=N)N)NC(=O)[C@@H](CCCNC(=N)N)NC(=O)[C@@H](CC1CCCCC1)NC(=O)[C@@H](Cc1c(F)c(F)c(F)c(F)c1F)NC(=O)[C@@H](CO)NC(=O)[C@@H](Cc1c[nH]c2ccccc12)NC(=O)[C@@H](CO)NC(=O)[C@H](N)Cc1ccc(C(=O)c2ccccc2)cc1)C(=O)O [CBP501, acetate salt] (H-[dBpa][dS][dW][dS][dPhe(F5)][dCha][dR][dR][dR][dQ][dR][dR]-OH)
Output: 12600
